# target-system: T1, human trkC receptor immunoadhesin (trkC extracellular domain fused to immunoglobulin constant domains) (human, UniProt Q16288 32-429)
# T1 construct: extracellular domain; not shown: immunoglobulin constant domains
# experimental-details: competitive displacement of labeled NT-3 from human trkC immunoadhesin, 96-well plate
measured-property: IC50mut/IC50NGF12 (ratio)

| binder | quantity-unit | observed-result |
| --- | --- | --- |
| NGF130 (ligand) SSSHPIFHRGEFSVCDSVSLWVTDKTTATDIKGKEVMVLGEVNINNSVFKQYFFETKCRDPNPVDSGCRGIDSKHWNSYCTTTQTYVKALTMDGKQAAWRFIRIDTACVCVLSRKAVRRA | ratio | 0.3 |
| NGFR2 (ligand) SSSHPIFHRGEFSVCDSVSLWVTDKTTATDIKGKEVMVLGEVNINNSVFKQYFFETKCRDPNPVDSGCRGIDSKHWNSYCKTTQTFVKALTMDGKQAAWRFIRIDTACVCVLSRKAVRRA | ratio | 0.7 |
